src = patent US11999747B2

- study-target: recombinant human TDP2 (Homo sapiens, UniProt O95551)
- procedure-text: Recombinant Tdp2 assay (gel-based, 18-mer ssDNA substrate)
- Format: biochemical
- conditions-used: recombinant human TDP2, 25 pM, 15 min, room temperature; read-out: REC TDP2
- Experimental: TDP2 reactions were carried out as described previously (Example 52) with the following modifications. […] All compounds were prepared by the methods shown in Examples 1 to 50. Routine changes in starting materials and reaction conditions, readily apparent to those of skill in the art, were used to make the particular compounds disclosed in Table 1. […]
pIC50: −log10 of the molar value.
Entries and their pIC50 values follow.

Worked examples follow.
Cc1oc2c(c1C(=O)Oc1ccccc1OCCCN1CCOCC1)C(=O)c1ncccc1C2=O [Compound 60]    3.95 to 4.43
CC(=O)N1CCN(c2ccc(OC(=O)c3c(C)oc4c3C(=O)c3ncccc3C4=O)cc2)CC1 [Compound 61]    3.95 to 4.43
Cc1oc2c(c1C(=O)Nc1ccccc1O)C(=O)c1ncccc1C2=O [Compound 18]    < 3.95
Cc1oc2c(c1C(=O)OCCCCO)C(=O)c1ncccc1C2=O [Compound 35]    4.43 to 4.92
Cc1oc2c(c1C(=O)Oc1ccc3ccccc3c1)C(=O)c1ncccc1C2=O [Compound 25]    < 3.95

Prompt: Need pIC50 of CCOC(=O)c1c(CC)oc2c1C(=O)c1ncccc1C2=O [Compound 65] , thanks.
Response: 3.95 to 4.43

Prompt: Need pIC50 of CCOC(=O)c1c(C(Br)Br)oc2c1C(=O)c1ncccc1C2=O [Compound 74] , thanks.
Response: 4.43 to 4.92

Prompt: Need pIC50 of CC(=O)c1c(C)oc2c1C(=O)c1cccnc1C2=O [Compound 8] , thanks.
Response: < 3.95

Prompt: Need pIC50 of C=CC(=O)Nc1cccc(OC(=O)c2c(C)oc3c2C(=O)c2ncccc2C3=O)c1 [Compound 67] , thanks.
Response: 4.43 to 4.92

====

Entries and their IC50 values follow.
- study-target: recombinant human TDP2 (Homo sapiens, UniProt O95551)
- procedure-text: Recombinant Tdp2 assay (gel-based, 18-mer ssDNA substrate)
- conditions-used: recombinant human TDP2, 25 pM, 15 min, room temperature; read-out: REC TDP2

Worked examples follow.
COc1ccc(NC(=O)c2c(C)oc3c2C(=O)c2ncccc2C3=O)cc1    > 111 µM
CCOC(=O)c1c2c(n(C)c1C)C(=O)c1ncccc1C2=O    > 111 µM
Cc1oc2c(c1C(=O)Oc1ccc(N)cc1)C(=O)c1ncccc1C2=O    1 to 12 µM

Prompt: Need IC50 of CNC1=C(Cl)C(=O)c2ncccc2C1=O , thanks.
Response: > 111 µM

Prompt: Need IC50 of Cc1oc2c(c1C(=O)Oc1ccc(Br)cc1)C(=O)c1ncccc1C2=O , thanks.
Response: 12 to 37 µM

====

- study-target: recombinant human TDP2 (Homo sapiens, UniProt O95551)
- Sequence (O95551 1-362): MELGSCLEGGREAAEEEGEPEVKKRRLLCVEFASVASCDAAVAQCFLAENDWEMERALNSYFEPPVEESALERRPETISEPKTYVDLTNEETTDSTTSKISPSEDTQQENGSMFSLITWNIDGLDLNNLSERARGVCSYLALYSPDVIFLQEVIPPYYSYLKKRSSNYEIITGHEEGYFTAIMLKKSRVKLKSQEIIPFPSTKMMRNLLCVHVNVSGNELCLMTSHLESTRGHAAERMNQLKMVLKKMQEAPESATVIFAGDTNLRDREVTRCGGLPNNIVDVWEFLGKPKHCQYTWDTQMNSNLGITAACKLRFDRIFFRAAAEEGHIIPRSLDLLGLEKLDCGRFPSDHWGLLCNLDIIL
- procedure-text: Recombinant Tdp2 assay (gel-based, 18-mer ssDNA substrate)
- conditions-used: recombinant human TDP2, 25 pM, 15 min, room temperature; read-out: REC TDP2
value-kind: IC50

Cc1oc2c(c1C(=O)Oc1ccccc1)C(=O)c1ncccc1C2=O    12 to 37 µM

Prompt: Need IC50 of CCOC(=O)c1c(C)oc2c1C(=O)c1ncccc1C2=O , thanks.
Response: 1 to 12 µM

Prompt: Need IC50 of Cc1oc2c(c1C(=O)OCCc1ccccc1)C(=O)c1ncccc1C2=O , thanks.
Response: 37 to 111 µM

Prompt: Need IC50 of CCOC(=O)C1=C(C)C(C(=O)OCC)C2=C1C(=O)c1ncccc1C2=O (stereo not drawn) , thanks.
Response: > 111 µM

Prompt: Need IC50 of CCOC(=O)c1c(CN2CCN(C(C)=O)CC2)oc2c1C(=O)c1ncccc1C2=O , thanks.
Response: 12 to 37 µM

Prompt: Need IC50 of Cc1oc2c(c1C(=O)Oc1cccc(C#N)c1)C(=O)c1ncccc1C2=O , thanks.
Response: 1 to 12 µM

Prompt: Need IC50 of Cc1oc2c(c1C(=O)Oc1cccc(Cl)c1)C(=O)c1ncccc1C2=O , thanks.
Response: 12 to 37 µM

Prompt: Need IC50 of CCOC(=O)c1c(CN2CCOCC2)oc2c1C(=O)c1ncccc1C2=O , thanks.
Response: 1 to 12 µM

Prompt: Need IC50 of Cc1oc2c(c1C(=O)OCCO)C(=O)c1ncccc1C2=O , thanks.
Response: 12 to 37 µM
